# TARGET_OR_SYSTEM: Glucocorticoid receptor (Homo sapiens)
# ASSAY_NOTES: GR-GFP Redistribution (AID 450); also: potency is read from the fitted curve at half-maximal effect
# RECORDED_CONDITIONS: U2OS GR-GFP nuclear translocation, laser cytometry, 2 h
Calls of active or inactive are those of the source.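 The calls were made as follows: active = compounds whose dose series gives a full or clear partial fitted curve of increased nuclear translocation; inconclusive = weak partial curve or effect only at the top dose; inactive = no dose-dependent translocation response.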
MEASURED_ATTRIBUTE: Potency

SMILES_ENTRY: Cc1noc(C)c1-c1cncnc1-n1ccnc1
TARGET_OR_SYSTEM: Glucocorticoid receptor (Homo sapiens)
Potency: > 46 µM (inactive)
--
SMILES_ENTRY: COc1ncc2ncc(=O)n(CCC#N)c2n1
TARGET_OR_SYSTEM: Glucocorticoid receptor (Homo sapiens)
Potency: > 9.22 µM (inactive)
--
SMILES_ENTRY: COc1ccc(Oc2ncc3ncc(=O)n(C4CC4)c3n2)cc1
TARGET_OR_SYSTEM: Glucocorticoid receptor (Homo sapiens)
Potency: > 9.22 µM (inactive)
--
SMILES_ENTRY: N#CCCn1c(=O)c(-c2cccs2)nc2cnc(N3CCNCC3)nc21
TARGET_OR_SYSTEM: Glucocorticoid receptor (Homo sapiens)
Potency: > 9.22 µM (inactive)
--
SMILES_ENTRY: FC(F)(F)c1ccccc1-c1cncnc1NCc1cccnc1
TARGET_OR_SYSTEM: Glucocorticoid receptor (Homo sapiens)
Potency: > 46 µM (inactive)

Problem: Identify measured Potency corresponding to COc1ccccc1-c1cc(Nc2ccn[nH]2)ncn1
Result: > 46 µM (inactive)

Problem: Identify measured Potency corresponding to CN1CCN(c2ncncc2-c2cccnc2)CC1
Result: > 46 µM (inactive)

Problem: Identify measured Potency corresponding to COc1cccc(-c2nccc(NC3CCNCC3)n2)c1
Result: > 46 µM (inactive)

====

# TARGET_OR_SYSTEM: Cytochrome P450 1A2 (Homo sapiens) (UniProt P05177)
# Sequence (P05177 whole entry, looked up): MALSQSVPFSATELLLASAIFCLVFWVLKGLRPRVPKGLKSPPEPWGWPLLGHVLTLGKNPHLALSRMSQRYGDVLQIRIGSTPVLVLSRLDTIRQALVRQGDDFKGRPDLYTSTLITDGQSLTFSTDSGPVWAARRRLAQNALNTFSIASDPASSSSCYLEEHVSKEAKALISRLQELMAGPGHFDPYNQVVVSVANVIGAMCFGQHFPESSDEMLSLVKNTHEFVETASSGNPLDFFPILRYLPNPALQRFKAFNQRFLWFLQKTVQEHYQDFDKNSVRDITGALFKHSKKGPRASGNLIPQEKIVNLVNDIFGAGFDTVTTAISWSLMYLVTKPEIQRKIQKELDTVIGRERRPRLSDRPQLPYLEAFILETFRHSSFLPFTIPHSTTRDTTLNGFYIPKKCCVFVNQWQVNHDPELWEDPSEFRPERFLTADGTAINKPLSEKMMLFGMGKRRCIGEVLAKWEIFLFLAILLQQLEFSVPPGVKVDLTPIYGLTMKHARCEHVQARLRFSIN
# ASSAY_NOTES: p450-cyp1a2 (AID 410)
# RECORDED_CONDITIONS: recombinant CYP1A2, luciferin-ME demethylation, luminescence; series mostly up to 57 µM
Results filed as inconclusive are left out. Calls of active or inactive are those of the source. The call rests on the fitted dose curve.
Thanks in advance; please answer with one of these: active, inactive

Solved entries:
SMILES_ENTRY: Cc1noc(C)c1C(=O)N1CCC2(CCN(Cc3ccncc3)CC2)CC1
TARGET_OR_SYSTEM: Cytochrome P450 1A2 (Homo sapiens) (UniProt P05177)
CATEGORY_LABEL: inactive
//
SMILES_ENTRY: Cc1cccc(CNc2ccnc(-c3ccccc3Cl)n2)c1
TARGET_OR_SYSTEM: Cytochrome P450 1A2 (Homo sapiens) (UniProt P05177)
CATEGORY_LABEL: active
//
SMILES_ENTRY: COCCNc1ccnc(-c2ccccc2C)n1
TARGET_OR_SYSTEM: Cytochrome P450 1A2 (Homo sapiens) (UniProt P05177)
CATEGORY_LABEL: active
//
SMILES_ENTRY: CCNc1ncc2nc(-c3ccc(F)cc3)c(=O)n(C[C@H]3CCCO3)c2n1
TARGET_OR_SYSTEM: Cytochrome P450 1A2 (Homo sapiens) (UniProt P05177)
CATEGORY_LABEL: active
//
SMILES_ENTRY: CCCN(CCC)C(=O)[C@@H](CCC(=O)O)NC(=O)c1ccccc1
TARGET_OR_SYSTEM: Cytochrome P450 1A2 (Homo sapiens) (UniProt P05177)
CATEGORY_LABEL: inactive

Problem: How did this test come out for COc1ccccc1-c1cncnc1N(C)Cc1ccco1 ?
Result: active

Problem: How did this test come out for CN(C)C(=O)c1ccc(-c2nc(N(C)C)c3ccccc3n2)cc1 ?
Result: active

Problem: How did this test come out for COC(=O)N1CCC2(CC1)CCN(c1cccc(-c3ccccc3)c1)CC2 ?
Result: inactive

Problem: How did this test come out for COc1ccc(C(=O)N2CCC[C@@]3(CCN(c4cccc(-c5ccccc5)c4)C3)C2)cc1 ?
Result: active

Problem: How did this test come out for CCNc1ncc2nc(-c3ccc(Cl)cc3)c(=O)n(Cc3cccc(OC)c3)c2n1 ?
Result: inactive

Problem: How did this test come out for COCC(=O)N1CCC2(CCCN(Cc3ccccc3OC)C2)CC1 ?
Result: inactive

====

# Test system: CP325
# ASSAY_NOTES: qHTS profiling for inhibitors of Plasmodium falciparum proliferation (AID 504749); also: nearly all actives have a fitted effect of over 60% in size
# RECORDED_CONDITIONS: P. falciparum in erythrocytes, SYBR Green DNA, 72 h; series mostly up to 12.8 µM
# Procedure: NIH National Institute of Allergy and Infectious Diseases [NIAID] NIH Chemical Genomics Center [NCGC] […] Because mature erythrocytes lack DNA, only Plasmodium-derived DNA is detected. NCGC Assay Protocol Summary: The SYBR Green viability assay was adapted from a method described previously (Plouffe et al., 2008). […] The following morning, fluorescence intensity at 485(14) nm excitation and 535(25) nm emission wavelengths was measured on an EnVision (Perkin Elmer) plate reader. […]
Records with an inconclusive call do not appear. Calls of active or inactive are those of the source. Calls come from the whole dose curve; as a rule, active = well fitted inhibition curve with a large enough effect; inconclusive = small, poorly fitted or top-dose-only effect; inactive = flat fitted curve, though single readings scatter.
Thanks in advance; please answer with one of these: True = active, False = inactive

Solved entries:
COMPOUND: C[C@@H](C(=O)O)c1ccc(C(=O)c2cccs2)cc1
TARGET_OR_SYSTEM: CP325
CATEGORY_LABEL: False
--
COMPOUND: CN(C)[C@H]1C(=O)C(C(=O)NCN2CCCC2)=C(O)[C@]2(O)C(=O)C3=C(O)c4c(O)cccc4[C@@](C)(O)[C@H]3C[C@@H]12
TARGET_OR_SYSTEM: CP325
CATEGORY_LABEL: False
--
COMPOUND: C[C@@H](CN(C)C)CN1c2ccccc2CCc2ccccc21
TARGET_OR_SYSTEM: CP325
CATEGORY_LABEL: False
--
COMPOUND: C[n+]1ccccc1/C=N\O
TARGET_OR_SYSTEM: CP325
CATEGORY_LABEL: False
--
COMPOUND: CC(C)(C)NC[C@H](O)c1cc(O)cc(O)c1
TARGET_OR_SYSTEM: CP325
CATEGORY_LABEL: False
--
COMPOUND: CC1(C)S[C@@H]2[C@H](NC(=O)[C@H](C(=O)O)c3ccsc3)C(=O)N2[C@H]1C(=O)O
TARGET_OR_SYSTEM: CP325
CATEGORY_LABEL: False
--
COMPOUND: O=c1[nH]cnc2c1ncn2C1OC(CO)C(O)C1O (configuration not stated)
TARGET_OR_SYSTEM: CP325
CATEGORY_LABEL: False
--
COMPOUND: CO/N=C(/C(=O)NC1C(=O)N2C(C(=O)O)=C(CSc3nc(=O)c(O)nn3C)CSC12)c1csc(N)n1 (configuration not stated)
TARGET_OR_SYSTEM: CP325
CATEGORY_LABEL: False
--
COMPOUND: NC(=O)c1cc[n+](CC2=C(C(=O)O)N3C(=O)[C@@H](NC(=O)[C@H](c4ccccc4)S(=O)(=O)[O-])[C@@H]3SC2)cc1
TARGET_OR_SYSTEM: CP325
CATEGORY_LABEL: True
--
COMPOUND: C[N+](C)(C)CC(O)CC(=O)O (configuration not stated)
TARGET_OR_SYSTEM: CP325
CATEGORY_LABEL: False

Problem: How did this test come out for CC(C)(O/N=C(\C(=O)N[C@@H]1C(=O)N2C(C(=O)[O-])=C(C[n+]3ccccc3)CS[C@@H]12)c1csc(N)n1)C(=O)O ?
Result: False

Problem: How did this test come out for NC(N)=NC[C@@H]1COC2(CCCCC2)O1 ?
Result: False

Problem: How did this test come out for CC(=O)OCC1=C(C(=O)O)N2C(=O)[C@@H](NC(=O)CSc3ccncc3)[C@@H]2SC1 ?
Result: False

Problem: How did this test come out for NS(=O)(=O)c1cc([C@@]2(O)NC(=O)c3ccccc32)ccc1Cl ?
Result: False

Problem: How did this test come out for O=C(O)/C=C\c1ccc(Cn2ccnc2)cc1 ?
Result: False

Problem: How did this test come out for CN1CCCC[C@@H]1CCN1c2ccccc2Sc2ccc(S(C)=O)cc21 (some centres not stated) ?
Result: False

Problem: How did this test come out for Cn1c(=O)c2c(ncn2C[C@@H](O)CO)n(C)c1=O ?
Result: False

====

# System: CP211
# ASSAY_NOTES: qHTS profiling for inhibitors of Plasmodium falciparum proliferation (AID 504749); also: nearly all actives have a fitted effect of over 60% in size
# RECORDED_CONDITIONS: P. falciparum in erythrocytes, SYBR Green DNA, 72 h; series mostly up to 12.8 µM
Inconclusive results are not listed. The source made the active and inactive calls. Calls follow the shape of the dose curve; as a rule, active = well fitted inhibition curve with a large enough effect; inconclusive = small, poorly fitted or top-dose-only effect; inactive = flat fitted curve, though single readings scatter.
Thanks in advance; please answer with one of these: 1 = active, 0 = inactive

Solved entries:
SMILES_ENTRY: COCCc1ccc(OC[C@H](O)CNC(C)C)cc1
TARGET_OR_SYSTEM: CP211
CATEGORY_LABEL: 0
--
SMILES_ENTRY: CCC[C@H]1C(=O)N2C(N(C)C)=Nc3ccc(C)cc3N2C1=O
TARGET_OR_SYSTEM: CP211
CATEGORY_LABEL: 0
--
SMILES_ENTRY: Cc1cc(/C=C\c2ccc3cc(N(C)C)ccc3[n+]2C)c(C)n1-c1ccccc1
TARGET_OR_SYSTEM: CP211
CATEGORY_LABEL: 1
--
SMILES_ENTRY: CC1(C)Oc2ccc(C#N)cc2[C@H](N2CCCC2=O)[C@H]1O
TARGET_OR_SYSTEM: CP211
CATEGORY_LABEL: 0
--
SMILES_ENTRY: CN[C@@H](CC(C)C)C(=O)N[C@@H]1C(=O)N[C@H](CC(N)=O)C(=O)N[C@@H]2C(=O)N[C@H]3C(=O)N[C@H](C(=O)N[C@H](C(=O)O)c4cc(O)cc(O)c4-c4cc3ccc4O)[C@H](O)c3ccc(c(Cl)c3)Oc3cc2cc(c3O[C@H]2O[C@@H](CO)[C@@H](O)[C@@H](O)[C@@H]2O[C@@H]2C[C@](C)(N)[C@H](O)[C@H](C)O2)Oc2ccc(cc2Cl)[C@@H]1O
TARGET_OR_SYSTEM: CP211
CATEGORY_LABEL: 0

Problem: How did this test come out for CCN1C(=O)N[C@@H](c2ccccc2)C1=O ?
Result: 0
